- Experimental System: CYP2C9 (Homo sapiens (Human))
- Sequence (P11712 whole entry): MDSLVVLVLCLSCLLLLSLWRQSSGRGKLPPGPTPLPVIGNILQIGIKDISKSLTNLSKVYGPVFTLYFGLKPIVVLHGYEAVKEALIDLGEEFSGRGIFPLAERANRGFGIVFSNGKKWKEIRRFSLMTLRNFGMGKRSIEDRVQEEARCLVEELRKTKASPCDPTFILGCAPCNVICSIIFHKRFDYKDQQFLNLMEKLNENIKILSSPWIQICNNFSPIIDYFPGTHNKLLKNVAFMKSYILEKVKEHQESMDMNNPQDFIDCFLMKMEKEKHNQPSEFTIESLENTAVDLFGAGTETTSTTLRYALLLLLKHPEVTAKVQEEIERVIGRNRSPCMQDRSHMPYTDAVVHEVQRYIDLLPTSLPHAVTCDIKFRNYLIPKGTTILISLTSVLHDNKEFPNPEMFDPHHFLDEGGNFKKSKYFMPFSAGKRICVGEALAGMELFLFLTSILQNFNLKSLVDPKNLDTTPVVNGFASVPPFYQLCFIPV
- Assay Summary: CYP inhibition test (CYP2C9)
- Assay type: in vitro ADME
- Experimental Context: pooled human hepatic microsome, tolbutamide methyl-hydroxylation

{"columns": ["Compound", "IC50"],
 "data": [
  ["C=C1C[C@@](C)(c2cncc(NC(=O)c3cnc(OC)cn3)c2)N=C(N)S1 [Compound 104]", "> 20 µM"],
  ["C=C1C[C@@](C)(c2cncc(NC(=O)c3ncc(C(F)(F)F)cc3Cl)c2)N=C(N)S1 [Compound 106]", "> 20 µM"]
]}

---

- Experimental System: Recombinant human BACE-1 (Homo sapiens (Human))
- Sequence (P56817 46-501): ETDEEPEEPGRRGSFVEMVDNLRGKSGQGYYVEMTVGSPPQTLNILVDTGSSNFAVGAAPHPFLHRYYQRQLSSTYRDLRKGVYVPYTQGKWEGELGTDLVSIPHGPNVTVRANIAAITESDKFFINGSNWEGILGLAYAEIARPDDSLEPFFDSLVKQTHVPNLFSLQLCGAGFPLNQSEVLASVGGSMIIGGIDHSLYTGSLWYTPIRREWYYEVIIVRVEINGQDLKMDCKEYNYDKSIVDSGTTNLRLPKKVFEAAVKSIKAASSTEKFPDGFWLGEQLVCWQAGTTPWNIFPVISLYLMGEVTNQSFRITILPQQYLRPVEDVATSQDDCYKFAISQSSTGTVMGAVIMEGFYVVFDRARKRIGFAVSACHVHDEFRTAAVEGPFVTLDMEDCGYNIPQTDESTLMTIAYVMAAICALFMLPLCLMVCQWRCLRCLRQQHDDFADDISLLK
- Assay Summary: Assay of β-secretase-inhibiting activity
- Experimental Context: Recombinant human BACE-1 7.4 nM, substrate peptide 18 nM, pH 5.0, 30° C. 3 hours

{"columns": ["Molecule", "IC50 (µM)"],
 "data": [
  ["C[C@@]1(c2cc(NC(=O)c3cnc(-n4ccnn4)cn3)ccc2F)C=CSC(N)=N1 [Compound 72]", 0.25],
  ["C[C@@]1(c2cc(NC(=O)c3cnc(NS(C)(=O)=O)cn3)ccc2F)C=CSC(N)=N1 [Compound 66]", 0.296],
  ["C=C1C[C@@](C)(c2cc(NC(=O)c3cnc(OC)cn3)ccc2F)N=C(N)S1 [Compound 51]", 0.016],
  ["C=C1C[C@@](C)(c2cc(NC(=O)c3ncc(C#N)cc3F)cnc2Cl)N=C(N)S1 [Compound 101]", 0.022],
  ["NC1=NC(c2cccc(F)c2)(c2cccc(NC(=O)c3ncc(Cl)cc3Cl)c2)CS1 (centres unmarked) [Compound 56]", 0.352],
  ["COc1cnc(C(=O)Nc2cccc(C3(C(F)(F)F)CCSC(N)=N3)c2)cn1 (centres unmarked) [Compound 48]", 0.273],
  ["Cc1c(C(=O)Nc2ccc(F)c([C@]3(C)C=CSC(N)=N3)c2)oc2ccc(Br)cc12 [Compound 81]", 0.007],
  ["Cn1ccnc1COc1cnc(C(=O)Nc2ccc(F)c([C@]3(C)C=CSC(N)=N3)c2)cn1 [Compound 60]", 0.243]
]}
